- assayRemarks: Drug level in Tg2576 mouse brain at 200 umol/kg, po after 3 hrs
- Format: ADME, organism-based
- settings: read-out: Drug uptake
Entries and their concentration at 3 h
metric: concentration at 3 h

{"columns": ["lineNotation", "metric", "val"],
 "data": [
  ["CCN(CCCn1ccnc1)C(=O)OC[C@@H](C)N(c1cc(Cl)ccc1CO)S(=O)(=O)c1ccc(Cl)cc1", "concentration at 3 h", "227 nM"],
  ["CCN(CCCn1ccnc1)C(=O)OC[C@@H](C)N(c1cc(Cl)ccc1Cl)S(=O)(=O)c1ccc(Cl)cc1", "concentration at 3 h", "41200 nM"],
  ["C[C@H](COC(=O)N(CCCn1ccnc1)CC1CC1)N(c1cc(Cl)ccc1CO)S(=O)(=O)c1ccc(Cl)cc1", "concentration at 3 h", "859 nM"]
]}
